Numbers sourced from patent US8399509B2.

- study system: SGLT2 (Homo sapiens)
- protocol text: 14C-AMG uptake in BHK cells transfected with SGLT2
- condition label: 2 mM AMG, 37° C., 90 min
pIC50: −log10 of the molar value.
pIC50 values for the molecules below.

Here's what some known entries look like.
COc1ccc(C2CCc3ccc([C@@H]4O[C@H](CO)[C@@H](O)[C@H](O)[C@H]4O)cc32)cc1 (stereo partly shown)    6.00 to 8.00
COc1ccc(C2CCCc3ccc([C@@H]4O[C@H](CO)[C@@H](O)[C@H](O)[C@H]4O)cc32)cc1 (stereo partly shown)    6.00 to 8.00

Form field: reported pIC50 of CCOc1ccc(C2CCc3ccc([C@@H]4O[C@H](CO)[C@@H](O)[C@H](O)[C@H]4O)cc32)cc1 (stereo partly shown)
6.00 to 8.00

Form field: reported pIC50 of `COc1ccc(C2=CCCc3ccc([C@]4(OC)O[C@H](CO)[C@@H](O)[C@H](O)[C@H]4O)cc32)cc1`
< 5.00

---

- study system: SGLT2 (Homo sapiens, UniProt P31639)
- Sequence (P31639 whole entry): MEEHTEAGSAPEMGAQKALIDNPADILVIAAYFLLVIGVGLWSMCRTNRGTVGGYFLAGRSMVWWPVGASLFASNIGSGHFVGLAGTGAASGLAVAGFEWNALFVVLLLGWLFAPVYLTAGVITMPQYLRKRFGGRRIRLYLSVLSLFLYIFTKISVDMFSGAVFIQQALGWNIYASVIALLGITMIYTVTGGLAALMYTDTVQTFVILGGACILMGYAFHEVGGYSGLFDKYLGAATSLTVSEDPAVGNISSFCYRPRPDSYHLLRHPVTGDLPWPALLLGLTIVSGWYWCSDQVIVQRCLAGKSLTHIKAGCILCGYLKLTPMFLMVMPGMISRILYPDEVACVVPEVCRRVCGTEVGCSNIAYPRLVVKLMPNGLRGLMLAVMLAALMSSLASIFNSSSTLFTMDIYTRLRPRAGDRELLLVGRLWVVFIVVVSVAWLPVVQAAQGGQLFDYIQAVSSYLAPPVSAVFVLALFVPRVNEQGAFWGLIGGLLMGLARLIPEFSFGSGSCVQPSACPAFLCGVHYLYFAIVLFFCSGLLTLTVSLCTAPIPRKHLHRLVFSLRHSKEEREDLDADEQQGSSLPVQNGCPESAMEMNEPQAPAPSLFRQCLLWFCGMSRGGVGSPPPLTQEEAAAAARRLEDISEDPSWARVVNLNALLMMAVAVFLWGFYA
- protocol text: 14C-AMG uptake in BHK cells transfected with SGLT2
- condition label: 2 mM AMG, 37° C., 90 min
IC50 values for the molecules below.

Here's what some known entries look like.
COc1ccc([C@@H]2CCc3ccc([C@@H]4O[C@H](CO)[C@@H](O)[C@H](O)[C@H]4O)cc32)cc1    10 to 1000 nM
CCOc1ccc(-n2ccc3ccc([C@@H]4O[C@H](CO)[C@@H](O)[C@H](O)[C@H]4O)cc32)cc1    > 10000 nM
COc1ccc(C2COc3ccc([C@@H]4O[C@H](CO)[C@@H](O)[C@H](O)[C@H]4O)cc32)cc1 (stereo partly shown)    10 to 1000 nM

Form field: reported IC50 of `COc1ccc([C@@H]2COc3ccc([C@@H]4O[C@H](CO)[C@@H](O)[C@H](O)[C@H]4O)cc32)cc1`
10 to 1000 nM
